- Test system: NCI-H522 lung
- procedure_text: NCI tumour cell line growth inhibition, 48 h
property_name: log10 TGI (log10 of the value in µM)
Base-10 log of TGI, unit µM.

Use these answered entries as a reference point.
molecule=CC(C)(C)NC(=O)/C(=C\Sc1ccccc1)c1ccc2c(c1)OCO2 numeric_value=1.64
molecule=CC(C)COP(=O)(OCC(C)C)C(NS(=O)(=O)c1ccccc1)(C(F)(F)F)C(F)(F)F numeric_value=1.24
molecule=O=C1C(Cl)=C(Nc2ccccc2)C(=O)c2ccccc21 numeric_value=0.58

Please supply log10 TGI for each of the following items, keeping them in order.
1. COc1ccc2nc3cc(Cl)ccc3c(NCCCNCCCNc3c4ccc(Cl)cc4nc4ccc(OC)cc34)c2c1
2. CC1(C)[C@@H]2CC[C@@]1(C)[C@@H]1O[C@@H](O[C@@H](CN)c3cc(Cl)c(OCc4ccccc4)c(OCc4ccccc4)c3)C[C@H]21
3. CC(=O)N(C(C)=O)C1=C2c3ccccc3N(S(=O)(=O)c3ccccc3)C2n2c(=O)n(-c3ccccc3)c(=O)n2C1 (centres undefined)
4. Cn1cc(-c2csc(-c3cn(C)c4ccccc34)n2)c2cnccc21

Result block:
-0.94
-0.45
1.60
0.58
